# target-or-system: DRD2 wild-type (Homo sapiens)
# procedure-summary: biochemical
# experimental-context: pKi
experimental-readout: Ki

smiles-record: O=c1[nH]c2cccc(N3CCN(Cc4cccc(-c5ccccc5)c4)CC3)c2o1
experimental-readout: Ki
endpoint-result: 0.302 nM

* * *

# target-or-system: DRD2-T4L(Sf9) I122^3.40A/L375^6.37A/L379^6.41A (Homo sapiens, UniProt P14416, I122A/L375A/L379A)
# procedure-summary: biochemical
# experimental-context: Ki

compound: O=c1[nH]c2cccc(N3CCN(Cc4cccc(-c5ccccc5)c4)CC3)c2o1 [Bifeprunox]
Ki (pM): 570

* * *

# target-or-system: DRD2 wild-type (Homo sapiens, UniProt P14416)
# procedure-summary: biochemical
# experimental-context: Ki
pKi: −log10 of the molar value.

smiles-record: O=c1[nH]c2cccc(N3CCN(Cc4cccc(-c5ccccc5)c4)CC3)c2o1
pKi: 8.98
